Give relative viability for every item shown.
- System: PC-3 [JPC-3]
- protocolSummary: relative viability (nuclei count vs DMSO), 5 days (fraction); higher = more cells survive
- assaySetup: first compound 0.1 µM
Just the number, please, no unit after it.

Q: If you can, please state the reported relative viability value of CCN(CC)CCCCNc1ncc2cc(-c3cc(OC)cc(OC)c3)c(NC(=O)NC(C)(C)C)nc2n1 + CS(=O)(=O)N1CCN(Cc2cc3nc(-c4cccc5[nH]ncc45)nc(N4CCOCC4)c3s2)CC1 [Pictilisib] (partner 1 µM) .
Result: 0.786

Q: // relative viability lookup, key: O=c1cc(N2CCOCC2)oc2c(-c3cccc4c3sc3ccccc34)cccc12 + O=C(c1cc(Cc2n[nH]c(=O)c3ccccc23)ccc1F)N1CCN(C(=O)C2CC2)CC1 [Olaparib] (partner 8 µM)
Result: 1.15
